System: MCF-7 (breast) cancer cell line
Assay: MTT assay, cell viability, MCF-7
Type: cell-based
Details: Homo sapiens, MCF7, 48 h, read-out: Cell viability (%) MCF-7 (breast), 100 μg/μL concentration of compound, 48 h, MTT, mean ± SD in triplicate
Kindly supply the reported viability values for the records listed here.
Express it in %; write the number only.

// returns reported viability for input Cc1ccc(NC(=O)CSc2nnc(Cn3cnc4c3c(=O)n(C)c(=O)n4C)n2-c2ccccc2)cc1C [Compound 11h] 33.2

Entry Cn1c(=O)c2c(ncn2Cc2nnc(SCC(=O)Nc3ccccc3Cl)n2-c2ccccc2)n(C)c1=O [Compound 11f] : reported viability = ? 72.8

Please give the measured viability for this compound: Cn1c(=O)c2c(ncn2Cc2nnc(SCC(=O)Nc3ccc(F)cc3)n2-c2ccccc2)n(C)c1=O [Compound 11e] 54.8

GET /values?readout=viability&item= Cn1c(=O)c2c(ncn2Cc2nnc(SCC(=O)Nc3ccccc3F)n2-c2ccccc2)n(C)c1=O [Compound 11j] 63.7
